Emax (F/R): recorded values
- Test system: eIF2α phosphorylation (eIF2•GTP•Met-tRNAi ternary complex; HRI activation)
- TEST_SUMMARY: surrogate dual luciferase eIF2α phosphorylation (ternary complex) assay
- Assay type: cell-based, human
- COND: 15 μM compound
Only the number, expressed in F/R, is required.

Here's what some known entries look like.
INSERT INTO measurements (compound, endpoint_result) VALUES
  ('O=C(Nc1ccccc1OC(F)(F)F)N[C@H]1CC[C@H](OCc2c(F)cccc2F)CC1', 0.93),
  ('COc1cccc(NC(=O)N[C@H]2CC[C@H](OCc3c(F)cccc3F)CC2)c1', 0.97),
  ('O=C(Nc1ccc(C(F)(F)F)cc1)N[C@H]1CC[C@H](OCc2c(F)cccc2F)CC1', 0.79);

Emax (F/R) recorded for this compound, CSc1cccc(NC(=O)N[C@H]2CC[C@H](OCc3c(F)cccc3F)CC2)c1 [II-10m] , is 0.73

Emax (F/R) recorded for this compound, Cc1ccc(NC(=O)N[C@H]2CC[C@H](OCc3c(F)cccc3F)CC2)cc1 , is 0.81

Emax (F/R) recorded for this compound, O=C(Nc1ccc(Br)cc1)N[C@H]1CC[C@H](OCc2c(F)cccc2F)CC1 , is 0.85

Emax (F/R) recorded for this compound, O=C(Nc1cccc(C(F)(F)F)c1)N[C@H]1CC[C@H](OCc2c(F)cccc2F)CC1 , is 1.15

Emax (F/R) recorded for this compound, Cc1ccccc1NC(=O)N[C@H]1CC[C@H](OCc2c(F)cccc2F)CC1 , is 0.79

###

- System: BAF-3
- TEST_SUMMARY: cell proliferation assay, BAF-3
- Type: cell-based
- COND: Mus musculus, BaF3; BAF-3, Leukemia
RESULT_TYPE: IC50 (nM)
Only the number, expressed in nM, is required.

IC50 recorded for this molecule, O=C(Nc1cccc(C(F)(F)F)c1)NC1CCC(Oc2ccc(OC(F)(F)F)cc2)CC1 (stereo not shown) , is 800

###

- Tested on: eIF2α phosphorylation (eIF2•GTP•Met-tRNAi ternary complex; HRI activation)
- TEST_SUMMARY: surrogate dual luciferase eIF2α phosphorylation (ternary complex) assay
- Type: cell-based, human
- COND: ternary complex assay; F/R normalized to vehicle (DMSO = 1)
Lab note: cut-off is 2 F/R. Strictly less in Emax (F/R) is Satisfied. Exactly 2 F/R or more is Not satisfied.

See these solved cases before continuing.
INSERT INTO measurements (compound, assigned_class) VALUES
  ('O=C(Nc1ccccc1OC(F)(F)F)NC1CCC(Oc2ccc(F)cc2)CC1 (stereo not drawn)', 'Satisfied'),
  ('O=C(Nc1ccc(I)cc1)NC1CCC(Oc2ccc(F)cc2)CC1 (stereo not drawn)', 'Not satisfied'),
  ('Cc1ccc(NC(=O)NC2CCC(Oc3ccc(F)cc3)CC2)cc1 (stereo not drawn)', 'Satisfied'),
  ('COC(=O)c1cccc(NC(=O)NC2CCC(Oc3ccc(F)cc3)CC2)c1 (stereo not drawn) [Compound I-11m]', 'Not satisfied'),
  ('O=C(Nc1ccccc1)NC1CCC(Oc2ccc(F)cc2)CC1 (stereo not drawn)', 'Satisfied');

Threshold test, Emax (F/R) < 2 F/R: O=C(Nc1ccc(F)cc1)NC1CCC(Oc2ccc(F)cc2)CC1 (stereo not drawn) Satisfied

Threshold test, Emax (F/R) < 2 F/R: O=C(Nc1ccc(Cl)cc1)NC1CCC(Oc2ccc(F)cc2)CC1 (stereo not drawn) Satisfied

Threshold test, Emax (F/R) < 2 F/R: Cc1ccccc1NC(=O)NC1CCC(Oc2ccc(F)cc2)CC1 (stereo not drawn) Satisfied

Threshold test, Emax (F/R) < 2 F/R: O=C(Nc1cccc(I)c1)NC1CCC(Oc2ccc(F)cc2)CC1 (stereo not drawn) Not satisfied

###

- Test system: eIF2α phosphorylation (eIF2•GTP•Met-tRNAi ternary complex; HRI activation)
- TEST_SUMMARY: surrogate dual luciferase eIF2α phosphorylation (ternary complex) assay
- Assay type: cell-based, human
- COND: ternary complex assay; F/R normalized to vehicle (DMSO = 1)
Lab note: cut-off is 2 F/R. Strictly less in Emax (F/R) is Fulfilled. Exactly 2 F/R or more is Not fulfilled.

INSERT INTO results (compound, assigned_class) VALUES
  ('O=C(Nc1ccccc1C(F)(F)F)NC1CCC(Oc2ccc(F)cc2)CC1 (centres unmarked)', 'Fulfilled'),
  ('Cc1cccc(NC(=O)NC2CCC(Oc3ccc(F)cc3)CC2)c1 (centres unmarked)', 'Not fulfilled'),
  ('O=C(Nc1ccc(Br)cc1)NC1CCC(Oc2ccc(F)cc2)CC1 (centres unmarked)', 'Fulfilled'),
  ('O=C(Nc1ccccc1F)NC1CCC(Oc2ccc(F)cc2)CC1 (centres unmarked)', 'Not fulfilled');

Kindly consider the entry below.
Threshold test, Emax (F/R) < 2 F/R: COc1ccccc1NC(=O)NC1CCC(Oc2ccc(F)cc2)CC1 (centres unmarked) Fulfilled

###

- System: eIF2α phosphorylation (eIF2•GTP•Met-tRNAi ternary complex; HRI activation)
- TEST_SUMMARY: surrogate dual luciferase eIF2α phosphorylation (ternary complex) assay
- Format: cell-based, human
- COND: Homo sapiens; DMSO = 1; maximum tested concentration 20 μM; read-out: Emax: Maximum activity of compound expressed as fold over vehicle
Lab note: cut-off is 8. Strictly less in maximal fold induction is rule met. Exactly 8 or more is rule not met.

INSERT INTO measurements (smiles_string, target_entity, assigned_class) VALUES
  ('NC(=O)c1cc(O[C@H]2CC[C@H](NC(=O)Nc3cccc(OC(F)(F)F)c3)CC2)ccc1C(F)(F)F', 'eIF2α phosphorylation (eIF2•GTP•Met-tRNAi ternary complex; HRI activation)', 'rule met'),
  ('N#Cc1cccc(NC(=O)N[C@H]2CC[C@H](Oc3ccc(C(F)(F)F)cc3)CC2)c1', 'eIF2α phosphorylation (eIF2•GTP•Met-tRNAi ternary complex; HRI activation)', 'rule not met'),
  ('N#Cc1ccc(NC(=O)N[C@H]2CC[C@H](Oc3ccc(C(F)(F)F)cc3)CC2)cc1', 'eIF2α phosphorylation (eIF2•GTP•Met-tRNAi ternary complex; HRI activation)', 'rule not met'),
  ('O=C(Nc1cc(C(F)(F)F)cc(C(F)(F)F)c1)N[C@H]1CC[C@H](Oc2ccc(C(F)(F)F)cc2)CC1', 'eIF2α phosphorylation (eIF2•GTP•Met-tRNAi ternary complex; HRI activation)', 'rule not met'),
  ('O=C(Nc1cccc(C(F)(F)F)c1)N[C@H]1CC[C@H](Oc2ccc(F)cc2)CC1', 'eIF2α phosphorylation (eIF2•GTP•Met-tRNAi ternary complex; HRI activation)', 'rule not met');

Kindly consider the entry below.
Threshold test, maximal fold induction < 8: NC(=O)c1cc(C(F)(F)F)ccc1O[C@H]1CC[C@H](NC(=O)Nc2cccc(OC(F)(F)F)c2)CC1 rule met

###

- Test system: RAMOS
- TEST_SUMMARY: cell proliferation assay, RAMOS
- Assay type: cell-based
- COND: Homo sapiens, Lymphoma
RESULT_TYPE: pIC50
Friendly reminder that pIC50 comes from taking -log10 of the concentration in mol/L.

pIC50 recorded for this molecule, O=C(Nc1cccc(C(F)(F)F)c1)NC1CCC(Oc2ccc(OC(F)(F)F)cc2)CC1 (stereo not shown) [Compound I-17] , is 6.10

###

IC50: recorded values
- Tested on: CRL-2813 human melanoma cancer cells
- TEST_SUMMARY: cell proliferation (SRB) assay, CRL-2813
- Type: cell-based
- COND: Homo sapiens, CRL2813, 120 h; cell proliferation assay (SRB, 5 days); cell line not named in Table 1, values equal CRL-2813 values of Tables 5/8; read-out: IC50
Only the number, expressed in µM, is required.

INSERT INTO results (molecule, result_type, endpoint_result) VALUES
  ('O=C(Nc1cccc(C(F)(F)F)c1)NC1CCC(Oc2ccc(F)cc2)CC1 (stereo not drawn)', 'IC50', 2.6);

Proceeding to the next molecule to report its IC50.
IC50 recorded for this molecule, COC(=O)c1ccccc1NC(=O)NC1CCC(Oc2ccc(F)cc2)CC1 (stereo not drawn) [Compound I-11o] , is 14.5

###

- Test system: ASPC-1
- TEST_SUMMARY: cell proliferation assay, ASPC-1
- Assay type: cell-based
- COND: Homo sapiens, ASPC1; SRB assay, Table 7; read-out: IC50 ASPC-1
IC50: recorded values

INSERT INTO assay_data (smiles_string, result_type, endpoint_result) VALUES
  ('CC(=O)Nc1cc(C(F)(F)F)ccc1O[C@H]1CC[C@H](NC(=O)Nc2cccc(C(F)(F)F)c2)CC1', 'IC50', '2600 nM'),
  ('O=C(Nc1cccc(OC(F)(F)F)c1)N[C@H]1CC[C@H](Oc2ccc(C(F)(F)F)cc2)CC1', 'IC50', '1000 nM');

IC50 recorded for this compound, O=C(Nc1cccc(C(F)(F)F)c1)N[C@H]1CC[C@H](Oc2ccc(C(F)(F)F)cc2[N+](=O)[O-])CC1 , is > 10000 nM

IC50 recorded for this compound, O=C(Nc1cccc(C(F)(F)F)c1)N[C@H]1CC[C@H](Oc2ccc(C(F)(F)F)cc2)CC1 , is 900 nM

Just for reference, patent US20160318856A1 is where these values come from.
